Reference source: patent US6407067B1

- Run Description: Stability test (storage at 70° C., 1 bar, content by HPLC)
- Type: physicochemical
- Run Conditions: 7 days
Below, each entry is listed alongside its reported Stability on storage in an open vessel (relative content by HPLC).
Readout Kind: Stability on storage in an open vessel (relative content by HPLC) (HPLC % areas)

• N=C(N)c1ccc(CNC(=O)[C@@H]2C=CCN2C(=O)[C@@H](CC2CCCCC2)NCC(=O)O)cn1.O=C(O)/C=C/C(=O)O [Fumarate] = 87.9
• CC(=O)O.N=C(N)c1ccc(CNC(=O)[C@@H]2C=CCN2C(=O)[C@@H](CC2CCCCC2)NCC(=O)O)cn1 [Acetate] = 92.6
• N=C(N)c1ccc(CNC(=O)[C@@H]2C=CCN2C(=O)[C@@H](CC2CCCCC2)NCC(=O)O)cn1.O=C1NS(=O)(=O)c2ccccc21 [Saccharin salt] = 100
